# ASSAY_INFO: Estrogen receptor binding affinity using [3H]estradiol in a competitive radioreceptor binding assay.
PROPERTY: relative binding affinity (RBA)

// solved cases for relative binding affinity (RBA) follow
                                   compound  result_value
0  CCC(c1ccc(O)cc1)C(CI)c1ccc(O)cc1 (stereo not given)           172
1  CCC(c1ccc(O)cc1)C(CC)c1ccc(O)c(CCCOC)c1 (stereo not given)          13.2

(A) CCC(c1ccc(O)cc1)C(COCCOCCCl)c1ccc(O)cc1 (stereo not given)
(B) CCC(c1ccc(O)cc1)C(CCI)c1ccc(O)cc1 (stereo not given)
Task: Could you check which of A and B has a smaller value for relative binding affinity (RBA)? Provide the label of your selected option as the answer.
Output: A

----------
# ASSAY_INFO: Estrogen receptor binding affinity using [3H]estradiol in a competitive radioreceptor binding assay.
PROPERTY: relative binding affinity (RBA)

Please review the entries below; each comes with its answer.
>>> print(df.to_string())
                                   compound                         property  result_value
0  CCC(c1ccc(O)cc1)C(CSCCCCCCCNc1ccc([N+](=O)[O-])c2nonc12)c1ccc(O)cc1 (stereo unspecified)  relative binding affinity (RBA)           3.4
1  CCC(c1ccc(O)cc1)C(CC)c1ccc(O)c(CCCO)c1 (stereo unspecified)  relative binding affinity (RBA)            12
2  CCC(c1ccc(O)cc1)C(C(=O)OC)c1ccc(O)cc1 (stereo unspecified)  relative binding affinity (RBA)            69

(a) CCC(c1ccc(O)cc1)C(CSCCNc1ccc([N+](=O)[O-])c2nonc12)c1ccc(O)cc1 (stereo unspecified)
(b) CCC(c1ccc(O)cc1)C(CCO)c1ccc(O)cc1 (stereo unspecified)
(c) CCC(c1ccc(O)cc1)C(CSCCCNc1ccc([N+](=O)[O-])c2nonc12)c1ccc(O)cc1 (stereo unspecified)
(d) CCC(c1ccc(O)cc1)C(C)c1ccc(O)cc1 (stereo unspecified)
Task: Number of compounds to sort: 4. Sort criterion: relative binding affinity (RBA), ascending. # output: labels, in the requested order
Output: a, c, b, d

----------
# ASSAY_INFO: Estrogen receptor binding affinity using [3H]estradiol in a competitive radioreceptor binding assay.
PROPERTY: relative binding affinity (RBA)

// solved cases for relative binding affinity (RBA) follow
In [3]: df
Out[3]:
                                   compound                         property  result_value
0  CCCCSCC(c1ccc(O)cc1)C(CC)c1ccc(O)cc1 (centres undefined)  relative binding affinity (RBA)          61.6
1  CCC(c1ccc(O)cc1)C(CC)c1ccc(O)c(CCCOc2ccc([N+](=O)[O-])cc2[N+](=O)[O-])c1 (centres undefined)  relative binding affinity (RBA)           1.7
2  CCC(c1ccc(O)cc1)C(CO)c1ccc(O)cc1 (centres undefined)  relative binding affinity (RBA)           8.9
3  CCCCSCCCc1cc(C(CC)C(CC)c2ccc(O)cc2)ccc1O (centres undefined)  relative binding affinity (RBA)           3.6
4  CCC(c1ccc(O)cc1)C(CC)c1ccc(O)c(CCCNc2ccc([N+](=O)[O-])c3nonc23)c1 (centres undefined)  relative binding affinity (RBA)           1.5

(1) CCC(c1ccc(O)cc1)C(CC)c1ccc(O)c(CCCN2C(=O)c3cccc([N+](=O)[O-])c3C2=O)c1 (centres undefined)
(2) CCC(c1ccc(O)cc1)C(CC(=O)OC)c1ccc(O)cc1 (centres undefined)
Task: # compare relative binding affinity (RBA) for 1 vs 2 ; return the one with the smaller value State your choice using its label.
Output: 1
(1: 3, 2: 20)

(A) CCC(c1ccc(O)cc1)C(CC)c1ccc(O)c(CCCOCc2ccccc2)c1 (centres undefined)
(B) CCCCCOC(=O)C(c1ccc(O)cc1)C(CC)c1ccc(O)cc1 (centres undefined)
(C) CCC(c1ccc(O)cc1)C(CC)c1ccc(O)c(CCCNc2ccc([N+](=O)[O-])cc2[N+](=O)[O-])c1 (centres undefined)
(D) CCC(c1ccc(O)cc1)C(CC)c1ccc(O)c(CCCN2C(=O)c3cccc(N)c3C2=O)c1 (centres undefined)
Task: Ordering criterion: relative binding affinity (RBA); begin with the maximum. Please respond with the labels ordered as the question requires.
Output: B, D, A, C
(B: 39, D: 7.4, A: 5, C: 1)

----------
# ASSAY_INFO: Estrogen receptor binding affinity using [3H]estradiol in a competitive radioreceptor binding assay.
PROPERTY: relative binding affinity (RBA)

>>> df
                                   compound                         property  result_value
0  CCC(c1ccc(O)cc1)C(CC)c1ccc(O)c(CCCN2C(=O)c3ccccc3C2=O)c1 (stereo not drawn)  relative binding affinity (RBA)           5.4
1  CCC(c1ccc(O)cc1)C(CSCCCCN1C(=O)c2ccccc2C1=O)c1ccc(O)cc1 (stereo not drawn)  relative binding affinity (RBA)           3.6
2  CCCCCOC(=O)CC(c1ccc(O)cc1)C(CC)c1ccc(O)cc1 (stereo not drawn)  relative binding affinity (RBA)           4.2
